- assay summary: physchem
- Assay type: physicochemical
- reported conditions: water, thermodynamic from solid
value kind: solubility at 60 min (µg/mL)

compound | value kind | measured result
Oc1ccc(C=Cc2cc(O)cc(O)c2)cc1 [trans-resveratrol, 3,5,4′-trihydroxystilbene] | solubility at 60 min | 27.5

Entry source: patent US8476248B2
